# credit: PubChem BioAssay (NCI)

Test system: UACC-257 melanoma
Experiment: NCI-60 one-dose screen, 48 h
Conditions: 10 µM unless noted
The panel holds about 83,000 compounds, 20% with a hit somewhere; the sample as a whole holds those more often. Activity calls are given as the source filed them. How the source made its calls: active means growth percent below 10; inactive means the rest.
Labels: active, inactive

# mol_smiles, test_target, classification
records = [
    ("COc1cc2ncnc(Oc3ccc(NC(=O)Nc4ccc(C5(C#N)CCCC5)cc4)c4ccccc34)c2cc1OC", "UACC-257 melanoma", "inactive"),
    ("CC(C)(CCN=C(N)Nc1ccccn1)c1ccc(C(F)(F)F)cc1", "UACC-257 melanoma", "active"),
    ("COc1ccc(-c2coc3c(CO)c(O)ccc3c2=O)cc1", "UACC-257 melanoma", "inactive"),
    ("C=C1C(=O)O[C@H]2[C@H]1CC/C(COC(=O)c1ccc(C#N)cc1)=C\\CC[C@@]1(C)O[C@@H]21", "UACC-257 melanoma", "inactive"),
    ("O=C1COc2ccccc2C(=O)N1CCCCNc1ccccc1", "UACC-257 melanoma", "inactive"),
    ("O=C1OC(c2ccc(-c3ccccc3)cc2)=C/C1=C/C=C/c1ccccc1", "UACC-257 melanoma", "active"),
    ("CCc1cccc(-c2ccccc2)c1", "UACC-257 melanoma", "inactive"),
    ("Oc1ccccc1/C=N/c1ccccn1", "UACC-257 melanoma", "inactive"),
    ("CCOC(=O)NNc1nncc2ccccc12", "UACC-257 melanoma", "inactive"),
    ("COc1cc(-c2nc3sc(C)cn3c2/C=C2\\C(=O)Nc3ccccc32)c(Br)c(OC)c1OC", "UACC-257 melanoma", "inactive"),
    ("C=C1C(=O)O[C@H]2[C@H]1CC/C(COC(=O)c1cccc3ccccc13)=C\\CC[C@@]1(C)O[C@@H]21", "UACC-257 melanoma", "active"),
]
